Test system: MOLM-13 cells
Assay: Cell viability assay (CellTiter-Glo) in MOLM-13 cells, alone or with gilteritinib
Format: cell-based
Conditions: Homo sapiens, MOLM-13, 72 h, MOLM-13 cells, compound alone (without gilteritinib), three days, CellTiter-Glo; read-out: MOLM-13 IC50
pIC50: −log10 of the molar value.
observation_type: pIC50

{"columns": ["compound", "pIC50"],
 "data": [
  ["O=C1CCC(N2C(=O)c3ccc(NCCCCCCn4cc(-c5cnc6ccc(C7=CCNCC7)cc6n5)cn4)cc3C2=O)C(=O)N1 (centres unmarked)", "7.00 to 8.00"],
  ["O=C1CCC(N2C(=O)c3ccc(NCCCCCCn4cc(-c5cnc6ccc(N7CCOCC7)cc6n5)c(C5CC5)n4)cc3C2=O)C(=O)N1 (centres unmarked)", "> 8.00"],
  ["O=C1CCC(N2Cc3c(Nc4ccnc(Nc5cccc(N6CCC(c7ccccn7)CC6)c5)n4)cccc3C2=O)C(=O)N1 (centres unmarked)", "7.00 to 8.00"],
  ["O=C1CCC(N2C(=O)c3ccc(NCCCCn4cc(-c5cnc6ccccc6n5)cn4)cc3C2=O)C(=O)N1 (centres unmarked)", "< 6.00"],
  ["O=C1CCC(N2C(=O)c3ccc(NCCCCC(=O)N4CCC(n5cc(-c6cnc7ccc(N8CCNCC8)cc7n6)c(C6CC6)n5)CC4)cc3C2=O)C(=O)N1 (centres unmarked)", "7.00 to 8.00"],
  ["CN1CCN(c2ccnc(-c3cnn([C@H]4C[C@H](CNc5ccc6c(c5)C(=O)N(C5CCC(=O)NC5=O)C6=O)C4)c3)n2)CC1 (some centres unmarked)", "6.00 to 7.00"],
  ["O=C1CCC(N2C(=O)c3ccc(N4CC(CCCCn5cc(-c6cnc7ccccc7n6)cn5)C4)cc3C2=O)C(=O)N1 (centres unmarked)", "< 6.00"],
  ["O=C1CCC(N2Cc3c(NC4CCCN(Cc5cccc(N6CCC(n7cc(-c8cnc9ccccc9n8)cn7)CC6)c5)C4)cccc3C2=O)C(=O)N1 (centres unmarked)", "< 6.00"]
]}

Briefly, pIC50 measured for O=C1CCC(N2C(=O)c3ccc(NCCC[C@H]4C[C@H](n5cc(-c6cnc7c(C8CNC8)cccc7n6)cn5)C4)cc3C2=O)C(=O)N1 (some centres unmarked) : 6.00 to 7.00

The compound identified as N#Cc1ccc2ncc(-c3cnn(C4CC(CCCNc5ccc6c(c5)C(=O)N(C5CCC(=O)NC5=O)C6=O)C4)c3)nc2c1 (centres unmarked) registered its pIC50 at 6.00 to 7.00

pIC50 recorded for this compound, O=C1CCC(N2C(=O)c3ccc(NC4CC(n5cc(-c6cnc7ccccc7n6)cn5)C4)cc3C2=O)C(=O)N1 (centres unmarked) , is < 6.00

Looking up Cc1nn(C2CC(CCCNc3ccc4c(c3)C(=O)N(C3CCC(=O)NC3=O)C4=O)C2)c(C)c1-c1cnc2ccccc2n1 (centres unmarked) , I found its pIC50 recorded as < 6.00

// pIC50 value for N#Cc1ccc2ncc(-c3cnn([C@H]4C[C@H](CCCNc5ccc6c(c5)C(=O)N(C5CCC(=O)NC5=O)C6=O)C4)c3)nc2c1 (some centres unmarked) : 6.00 to 7.00

Note to self: pIC50 recorded for O=C(CN1CCCC(n2cc(-c3cnc4ccccc4n3)cn2)C1)NCc1ccc2c(c1)C(=O)N(C1CCC(=O)NC1=O)C2=O (centres unmarked) was < 6.00
